System: Streptococcus pneumoniae A28272
Experiment: MIC, broth micro dilution assay (NCCLS)
Type: cell-based
Conditions: 50% Mueller-Hinton medium and 50% Todd Hewitt medium, 35° C., 18 hours
Procedure: The serial broth dilution method used Mueller-Hinton medium except for the Streptococcus pneumoniae which was tested in 50% Mueller-Hinton medium and 50% Todd Hewitt medium. The final bacterial inoculate contained approximately 5×10^5 cfu/well and was run on microtiter plates. The volume of each well was 100 μL and the plates were incubated at 35° C. for 18 hours in ambient air. The MIC was defined as the lowest drug concentration that prevented visible growth.
measurement_kind: MIC (μg/mL) Streptococcus pneumoniae A28272 (µg/mL)

molecule	value
C=C(NC(=O)c1csc(-c2nc3c(cc2O)-c2nc(cs2)C(=O)NC(C(C)O)C(=O)NC(=C(C)OC)c2nc(cs2)C(=O)NC2c4nc(cs4)C(=O)NC(COC(=O)c4c5c6c(cccc6n4OCOP(=O)(OCC)OCC)COC(=O)C(OC4CC(C)(O)C(N(C)C)C(C)O4)C2OC5)c2nc-3cs2)n1)C(N)=O (stereo not drawn)	0.001
C=C(NC(=O)c1csc(-c2nc3c(cc2O)-c2nc(cs2)C(=O)NC(C(C)O)C(=O)NC(=C(C)OC)c2nc(cs2)C(=O)NC2c4nc(cs4)C(=O)NC(COC(=O)c4c5c6c(cccc6n4OCOP(=O)(O)O)COC(=O)C(OC4CC(C)(O)C(N(C)C)C(C)O4)C2OC5)c2nc-3cs2)n1)C(N)=O (stereo not drawn)	0.015
C=C(NC(=O)c1csc(-c2nc3c(cc2O)-c2nc(cs2)C(=O)NC(C(C)O)C(=O)NC(=C(C)OC)c2nc(cs2)C(=O)NC2c4nc(cs4)C(=O)NC(COC(=O)c4c5c6c(cccc6n4OC(=O)NC)COC(=O)C(OC4CC(C)(O)C(N(C)C)C(C)O4)C2OC5)c2nc-3cs2)n1)C(N)=O (stereo not drawn)	0.001

###

Test system: Streptococcus pneumoniae A28272
Assay: MIC, broth micro dilution assay (NCCLS)
Assay type: cell-based
Conditions: 50% Mueller-Hinton medium and 50% Todd Hewitt medium, 35° C., 18 hours
measurement_kind: MIC (μg/mL) Streptococcus pneumoniae A28272 (µg/mL)

compound	value
C=C(NC(=O)c1csc(-c2nc3c(cc2OS(=O)(=O)c2cn(C)cn2)-c2nc(cs2)C(=O)NC(C(C)O)C(=O)NC(=C(C)OC)c2nc(cs2)C(=O)NC2c4nc(cs4)C(=O)NC(COC(=O)c4c5c6c(cccc6n4OCCCNS(=O)(=O)c4cn(C)cn4)COC(=O)C(OC4CC(C)(O)C(N(C)C)C(C)O4)C2OC5)c2nc-3cs2)n1)C(N)=O (stereo not drawn) [Example 87]	0.06
C=C(NC(=O)c1csc(-c2nc3c(cc2O)-c2nc(cs2)C(=O)NC(C(C)O)C(=O)NC(=C(C)OC)c2nc(cs2)C(=O)NC2c4nc(cs4)C(=O)NC(COC(=O)c4c5c6c(cccc6n4OCc4ccc(C(=O)O)cc4)COC(=O)C(OC4CC(C)(O)C(N(C)C)C(C)O4)C2OC5)c2nc-3cs2)n1)C(N)=O (stereo not drawn) [Example 11]	0.06
C=C(NC(=O)c1csc(-c2nc3c(cc2O)-c2nc(cs2)C(=O)NC(C(C)O)C(=O)NC(=C(C)OC)c2nc(cs2)C(=O)NC2c4nc(cs4)C(=O)NC(COC(=O)c4c5c6c(cccc6n4OCCCOC4OC(CO)C(O)C(O)C4O)COC(=O)C(OC4CC(C)(O)C(N(C)C)C(C)O4)C2OC5)c2nc-3cs2)n1)C(N)=O (stereo not drawn) [Example 58]	0.06
